Procedure Details: Cytotoxicity determination (CCK-8, without addition of virus)
Format: cell-based
Test Settings: human, HEp-2 cells (uninfected), no virus, Table C = greater than 100 μM, Table D = equal to or less than 100 μM and greater than 10 μM
Would you mind telling me the reported CC50 at 5 days of each entry?

Record request: CC50 at 5 days value, item COc1cc(C(=O)NCC(O)(c2cc(C3(C)COCCN3)cc(-c3ccc(F)cc3)n2)C(F)(F)F)ccc1OCCO (stereo not drawn) > 100 µM

Record request: CC50 at 5 days value, item COc1cc(C(=O)NC[C@@](O)(c2cc3c(c(-c4ccc(F)cc4)n2)OC[C@@]3(C)N)C(F)(F)F)cc2ccc(C(C)O)nc12 (stereo partly drawn) 10 to 100 µM

Record request: CC50 at 5 days value, item COc1cc(C(=O)NC[C@@](O)(c2cc3c(c(-c4ccc(F)cc4)n2)OC[C@@]3(C)N)C(F)(F)F)ccc1-c1nc(C)no1 10 to 100 µM

Record request: CC50 at 5 days value, item COc1cnc(C(=O)NCC(O)(c2cc3c(c(-c4ccc(F)cc4)n2)OCC3(C)N)C(F)(F)F)cc1OC (stereo not drawn) 10 to 100 µM

Record request: CC50 at 5 days value, item COc1cc(C(=O)NC[C@@](O)(c2cc3c(C)c[nH]c3c(-c3ccc(F)cc3)n2)C(F)(F)F)ccc1OCCO 10 to 100 µM

Record request: CC50 at 5 days value, item COc1cc(C(=O)NC[C@@](O)(c2cc3c(c(-c4ccc(F)cc4)n2)OC[C@@]3(C)NC(C)=O)C(F)(F)F)ccc1OC[C@@H](C)O 10 to 100 µM
